- Assay comment: DAX1 (NR0B1) inhibitors on StAR promoter, primary screen, cell-based, luminescence, SF-1 (NR5A1), full-length DAX-1 (AID 652010);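 also: 0% = DAX-1 cells with DMSO and 100% = cells lacking DAX-1 with DMSO; higher inhibition means more luminescence from relief of DAX-1 repression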
- Stated conditions: HEK293T StAR-luciferase reporter, SF-1/DAX-1 repression relief; at 6.8 µM
The whole screen tested about 370,000 compounds, of which about 4,100 (1.1%) were called active.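 The calls were made as follows: active = inhibition above the mean over all tested compounds plus 3 SD (cut at about 3.6% in these data); inactive = the rest.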 For the sample, actives were picked, then their nearest neighbours and some compounds at random.
Lab note: assign the record to one of label 1 (active), label 0 (inactive)

Please review the entries below; each comes with its answer.
IN: Any idea what this test logged for Cc1cccc(OC(C)C(=O)N2CCc3ccccc3C2)c1 (centres undefined) ?
OUT: label 0

IN: Same question, CN(CCO)c1cccc2c1S(=O)(=O)N(Cc1cn(Cc3ccc(C(F)(F)F)cc3)nn1)Cc1ccccc1O2 this time
OUT: label 0

IN: Same question, C/C(=N\NC(=O)c1ccccc1F)c1ccccn1 this time
OUT: label 1

---
IN: Any idea what this test logged for Cc1cc(NC(=O)CSC2=NS(=O)(=O)c3cc(Cl)ccc3N2)no1 ?
OUT: label 0

IN: Same question, COc1ccc(/C(N)=N/OC(=O)Oc2ccccc2)cc1 this time
OUT: label 0

IN: Same question, COc1cc(SC)ccc1C(=O)Nc1nc(C)cs1 this time
OUT: label 0

IN: Same question, O=C(Nc1cccc([N+](=O)[O-])c1)N1CCc2ccccc2C1 this time
OUT: label 1
